tested on: breast line MDA468; experiment: In vitro cell culture growth assay (MTS), MDA468; assay type: cell-based, human; conditions: Homo sapiens, 72 h, MDA468 cells, three days after drug treatment
Entries and their IC50 values follow.
Answer with the value and then the unit.

Example cases with answers are listed next.
Compound	Target desc	IC50
CNC(=O)Nc1ccc(-c2nc(N3CCOCC3)c3cnn([C@H]4CCCN(C(=O)OC(C)(C)C)C4)c3n2)cc1 [Compound 872]	breast line MDA468	1000 nM
O=C(Cc1ccccc1)N1CCC(n2ncc3c(N4CCOCC4)nc(-c4ccc5[nH]ccc5c4)nc32)CC1 [Compound 242]	breast line MDA468	3000 nM
c1cc(CN2CCC(n3ncc4c(N5CCOCC5)nc(-c5ccc6[nH]ccc6c5)nc43)CC2)ccn1 [Compound 179]	breast line MDA468	1800 nM

Short answer on breast line MDA468 for O=C(Nc1ccc(-c2nc(N3CCOCC3)c3cnn(-c4ccccc4)c3n2)cc1)C1CCNCC1 [Compound 140] , IC50: 1300 nM
